Reference for the values: PubChem BioAssay (NCI)

System: SNB-78 CNS
PROTOCOL_TEXT: NCI tumour cell line growth inhibition, 48 h
TGI for assorted molecules

MOLECULE	TGI
CC(=O)Nc1ccc(C2=N/C(=C\c3ccc(Cl)cc3)C(=O)O2)cc1	> 100 µM
COC(=O)C1=CC(=O)[C@@H]2CCCC[C@H]12	> 100 µM
Cc1cc(C)c(/C=N/NS(=O)(=O)c2ccccc2)c(C)c1	> 100 µM
CCc1ccccc1NC(=O)C(=O)C1C(=O)N(c2ccccc2)N=C1N (configuration not stated)	> 100 µM
CC#CC#C/C=C1\C=CC2(OC=CC2O)O1 (configuration not stated)	> 7.37 µM

Would you kindly share the measured TGI for Cc1ncc(CBr)c(CBr)c1O ?
> 100 µM

What about this molecule? Cc1ccc(NC(=O)CC2SC(=Nc3ccc(Cl)cc3)NC2=O)cc1C (configuration not stated)
44.3 µM

Same for CC(=O)O[C@@H]1CC[C@@]2(C)C(=O)C34C[C@@]5(C)C([C@@H](C)CCCC(C)C)CCC5(C)[C@](O)(O3)C(=O)[C@H]4C2C1(C)C (some centres not stated)
48.2 µM

Record: O=C(Cc1nc2ccccc2o1)C(=O)Nc1ccc(Cl)cc1Cl
> 100 µM

Proceed to NC(CSCSCC(N)C(=O)O)C(=O)O (configuration not stated)
> 104 µM

Ok, now CC[As](CC)SCC1OC(OC(C)=O)C(OC(C)=O)C(OC(C)=O)C1OC(C)=O (configuration not stated)
34.1 µM

Same question, CC1OC(CO)(n2cnc3c(N)ncnc32)C(O)C1O (configuration not stated) this time
> 100 µM

----------
Test system: HCT-15 colon
PROTOCOL_TEXT: NCI tumour cell line growth inhibition, 48 h; in the data active means GI50 below about 0.43 µM; inactive means the rest
Answer with one of the outcomes given here: yes (1) for active, no (0) for inactive

Recorded results for 7 compounds are shown here.
COMPOUND	ASSIGNED_CLASS
CCCCOC(=O)c1c(C)[nH]c(/C=C2\N=C(c3ccc[nH]3)C=C2OC)c1C	yes (1)
Nc1ncnc2c1ccn2-c1cccc(NC(=O)c2ccc(N3CCOCC3)c(C(F)(F)F)c2)c1	no (0)
O=C(/C=C/C=C/c1ccc2c(c1)OCO2)N/N=C\c1ccc(O)cc1O	no (0)
CCOc1ccc2c(c1)C(=O)c1c-2n(CCCN=[N+]=[N-])c(=O)c2cc([N+](=O)[O-])ccc12	no (0)
Nc1n[nH]c2ccc([C@@H]3Nc4ccc5cn[nH]c5c4[C@H]4C5CCC(C5)[C@@H]34)cc12 (stereo partly drawn)	yes (1)
COc1cc(N2CCC(N)CC2)ccc1Nc1ncc(Cl)c(-c2c[nH]c3ccccc23)n1	yes (1)
C[C@]12CC[C@@H]3c4ccc(OC(=O)N(CCCl)CCCl)cc4CC[C@H]3[C@@H]1CC[C@@H]2OP(=O)(O)O	no (0)

Turning now to a further compound:
For C#CCNC(=O)CC[C@@H](C)[C@H]1CC[C@H]2[C@@H]3CC[C@@H]4CC(=O)CC[C@]4(C)[C@H]3CC[C@]12C , which call appears in the assay record?
no (0)

----------
Test system: DMS 273 small cell lung
PROTOCOL_TEXT: NCI tumour cell line growth inhibition, 48 h
READOUT_NAME: TGI

Consider the following illustrative entries.
COMPOUND	REPORTED_MEASUREMENT
COC(=O)C(C(=O)C(=O)Nc1ccccc1C)c1nc2ccc([N+](=O)[O-])cc2[nH]c1=O (configuration not stated)	> 100 µM
C=C1CN2CCc3c([nH]c4ccccc34)C2CC1CC(=O)N(C)C (configuration not stated)	> 309 µM
CC1C(O)=C(O)c2ccccc2N1O (configuration not stated)	> 100 µM
O=c1oc2ccccc2n1P(=O)(Oc1ccc(Cl)cc1)n1c(=O)oc2ccccc21	> 100 µM
CCc1ccccc1NC(=O)C(=O)C1C(=O)N(c2ccccc2)N=C1N (configuration not stated)	> 100 µM

Now for the compound whose TGI we want.
For the compound shown here, CC#CC#C/C=C1\C=CC2(OC=CC2O)O1 (configuration not stated) , give the reported TGI.
> 23.3 µM

----------
// values below are reported TGI
Tested on: UACC-62 melanoma
PROTOCOL_TEXT: NCI tumour cell line growth inhibition, 48 h

Answered cases to consult:
MOLECULE	REPORTED_MEASUREMENT
O=C(Nc1cccc(-n2cc(-c3ccncc3)c(-c3ccc(Cl)c(O)c3)n2)c1)Nc1ccc(Cl)c(Cl)c1	5.21 µM
O=C1OCC2=C1C(c1cccc(Cl)c1)c1cc3c(cc1N2CCO)CCC3 (stereo not drawn)	15.3 µM
CC(=O)O[C@@H]1CC[C@@]2(C)C(=O)C34C[C@@]5(C)C([C@@H](C)CCCC(C)C)CCC5(C)[C@](O)(O3)C(=O)[C@H]4C2C1(C)C (stereo partly drawn)	32.6 µM
CC(=O)N[C@@H](Cc1ccc(OP(=O)(O)O)cc1)C(=O)N[C@H]1CCC(=O)N2CCC[C@@H](C(=O)NC3CCc4ccccc43)N2C1=O (stereo partly drawn)	> 25 µM
COC(=O)[C@H](Cc1ccccc1)NC(=O)N(CCNC(=O)OC(C)(C)C)c1ccccc1	> 100 µM
NC1NCCC(=O)N1CCc1c[nH]c2ccccc12 (stereo not drawn)	37.6 µM

Give the measured TGI of C[C@]12CC[C@@H]3c4ccc(OC(=O)N(CCCl)CCCl)cc4CC[C@H]3[C@@H]1CC[C@@H]2OP(=O)(O)O .
> 72.5 µM

Then this molecule: COc1cccc(/C=N/[N-]C(N)=O)c1[O-].[Co+2].[OH3+].c1ccncc1
> 100 µM

And then CC[As](CC)SCC1OC(OC(C)=O)C(OC(C)=O)C(OC(C)=O)C1OC(C)=O (stereo not drawn) , what is it?
27.2 µM

Also, O=C(Cc1nc2ccccc2o1)C(=O)Nc1ccc(Cl)cc1Cl please.
> 100 µM

Next molecule: Cc1cc(-c2cc(OC(=O)c3ccccc3)ccc2Cl)cc2nnc(Nc3ccc(OCCN4CCCC4)cc3)nc12
3.36 µM

Next up: COc1cc(C2CC(c3cccc(Nc4ccnc5cc(Cl)ccc45)c3)=NN2c2ccccc2)cc(OC)c1OC (stereo not drawn)
> 100 µM

----------
Tested on: SF-268 CNS
PROTOCOL_TEXT: NCI tumour cell line growth inhibition, 48 h; in the data active = GI50 below about 0.43 µM; inactive = the rest
Log the outcome using a class from active, inactive

Solved cases below.
COMPOUND	ASSIGNED_CLASS
CCCCCCCCCC[C@H](O)[C@H]1CC[C@@H]([C@@H](O)CC[C@H](O)[C@@H]2CCC(CCCCCCC[C@@H](O)CC3=C[C@H](C)OC3=O)O2)O1 (stereo not given in full)	inactive
COc1cc(C)[nH]c(=O)c1CNC(=O)c1c(C)n([C@H](C)C2CCN(CC(F)(F)F)CC2)c2ccccc12	inactive
CN(C)C1CN(C(=O)c2cc(-c3ccc4ncnc(N5CCc6cc(F)c(Cl)cc65)c4c3)cnc2N)C1	inactive
CC[C@@H](C)/C=C(C)/C=C/C(=O)c1c(O)c(-c2ccc(O)cc2)cn(OC2CC(=O)CCC(C)OC(=O)CC2O)c1=O (stereo not given in full)	active
CCCCCCCCCCCCCCCCCC[S+](C)CC (stereo not given)	inactive
COc1cc(C(=O)NN=C2c3ccccc3-c3ccccc32)cc(OC)c1OC	inactive
O=C1OCC2=C1C(c1cccc(Cl)c1)c1cc3c(cc1N2CCO)CCC3 (stereo not given)	active
CC(=O)N[C@@H](Cc1ccc(OP(=O)(O)O)cc1)C(=O)N[C@H]1CCC(=O)N2CCC[C@@H](C(=O)NC3CCc4ccccc43)N2C1=O (stereo not given in full)	inactive

Hi, do you know how Cc1c(C(=O)c2ccccc2)[n+](=O)c2cc(F)c(F)cc2n1[O-] came out in this test?
inactive

Could you do the same for CCCCCCCCCCCCCCCCCCOc1ccccc1COP(=O)(O)OOCC[N+](C)(C)C , please?
inactive

----------
System: SR leukemia
PROTOCOL_TEXT: NCI tumour cell line growth inhibition, 48 h
READOUT_NAME: TGI (µM)
Give just the numeric value; µM need not be written.

Use these answered entries as a reference point.
MOLECULE	STUDY_SYSTEM	REPORTED_MEASUREMENT
O=C(CN1CCN(C(=O)c2ccco2)CC1)Nc1ccc(Cl)cc1C(=O)c1ccccc1Cl	SR leukemia	2.76
O=C(/C=C/c1cccc(Br)c1)N1CCN(CCOC(c2ccccc2)c2ccccc2)CC1	SR leukemia	38.4

Here is the next item to consider.
Give its TGI value. Item: O=C1OCC2=C1C(c1cccc(Cl)c1)c1cc3c(cc1N2CCO)CCC3 (stereo unspecified)
21

----------
Entries annotated with measured TGI
Test system: K-562 leukemia
PROTOCOL_TEXT: NCI tumour cell line growth inhibition, 48 h
# output: bare number, implied unit µM

Take a look at these entries with their results.
MOLECULE	STUDY_SYSTEM	UNITS_LABEL	TGI
CC(=O)O[C@@H]1CC[C@@]2(C)C(=O)C34C[C@@]5(C)C([C@@H](C)CCCC(C)C)CCC5(C)[C@](O)(O3)C(=O)[C@H]4C2C1(C)C (stereo partly specified)	K-562 leukemia	µM	29.9
CC(C)C1=CC2=C(C(=O)C1=O)C13CCCC(C)(C)C1CC2OC3=O (stereo unspecified)	K-562 leukemia	µM	19.7
O=C(NC(OCc1ccccc1)(C(F)(F)F)C(F)(F)F)OCc1ccccc1	K-562 leukemia	µM	36.8
C[C@@H]1CC[C@@]2(C)[C@H](C)/C(=C\COC(=O)/C=C/c3ccc(O)c(O)c3)CC[C@@]12C	K-562 leukemia	µM	17.8
CN1CCN(CCC=C2c3ccccc3Sc3ccc(S(=O)(=O)N(C)C)cc32)CC1	K-562 leukemia	µM	4.72
COc1cc(N2CCC(N)CC2)ccc1Nc1ncc(Cl)c(-c2c[nH]c3ccccc23)n1	K-562 leukemia	µM	5.03
C=C(C)COc1cc(NC(=S)OC(C)C)ccc1Cl	K-562 leukemia	µM	38.7
COCCCNc1c2ccccc2nc2ccccc12	K-562 leukemia	µM	23.6

// returns reported TGI for input Cc1c(Cl)c(C)c(Cl)c(O)c1Cl
46.3

How about CC1CCc2c(sc3ncnc(N/N=C/c4ccc(Cl)cc4)c23)C1 (stereo unspecified) ?
48.1
